target: recombinant human Bcl-xL (Homo sapiens, UniProt Q07817); construct: fused to a His-tag without the C-terminus hydrophobic tail; His-tag; test: Fluorescence polarization binding assay for Bcl-xL (Bak-Flu peptide displacement)
Sequence (Q07817 1-209 limits assumed): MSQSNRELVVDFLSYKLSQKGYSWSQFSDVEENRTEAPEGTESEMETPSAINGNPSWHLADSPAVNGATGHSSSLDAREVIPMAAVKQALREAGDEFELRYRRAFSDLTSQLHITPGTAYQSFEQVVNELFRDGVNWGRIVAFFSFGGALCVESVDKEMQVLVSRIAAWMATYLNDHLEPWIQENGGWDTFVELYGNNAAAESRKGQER
property: Ki (nM)
// return numeric value only (unit: nM, not printed)

Exercise: Fill blank: measured Ki of the compound CC1=C(C2=C(C)C(=O)c3c(cc(O)c(O)c3C(C)C)C2=O)C(=O)c2cc(O)c(O)c(C(C)C)c2C1=O (racemic) is ____.
Solution: 1270

###

Experiment: Maximal tolerated dose (MTD) in mice
Format: in vivo
Conditions: mouse, in vivo, intravenous, every other day and 3 days/week
Description: To confirm this prediction, the maximal tolerated dose (MTD) of apogossypolone and (−)-gossypol was evaluated in mice using two different routes of administrations (oral and intravenous). For oral administration (oral gavage 5 days/week), the MTD of apogossypolone was above 240 mg/kg while the MTD for (−)-gossypol was about 50 mg/kg. For intravenous administration (every other day and 3 days/week), the MTD of apogossypolone was about 80 mg/kg while the MTD for (−)-gossypol was about 10 mg/kg. […]
property: MTD

Exercise: Fill blank: measured MTD of the molecule CC1=C(C2=C(C)C(=O)c3c(cc(O)c(O)c3C(C)C)C2=O)C(=O)c2cc(O)c(O)c(C(C)C)c2C1=O (racemic) is ____.
Solution: ~80 mg/kg

Reference for the values: patent US20060178435A1
